Collected IC50 values appear next to each entry.
System Under Test: UniProt O75762
Assay Notes: In vitro inhibition of human TRPA1, whole cell patch configuration
Condition Context: current activation 10 μM AITC, tested concentrations 320 pM to 3.2 μM, read-out: hTRPA1 IC50
Record the value in nM, omitting the unit from your answer.

Check out these entries, answers already filled in.
INSERT INTO results (molecule, system_under_test, reported_value) VALUES
  ('Cc1cc(Cn2c(=O)c3c(ncn3[C@@H](C)C(=O)Nc3cccc(-c4cnc(C)c(C(F)(F)F)c4)n3)n(C)c2=O)no1', 'UniProt O75762', 1),
  ('C[C@@H](C(=O)Nc1ccnc(-c2cnc(N3CC4C(C3)C4(F)F)nc2)n1)n1cnc2c1c(=O)n(CC#N)c(=O)n2C (stereo partly shown)', 'UniProt O75762', 7),
  ('Cc1cc(Cn2c(=O)c3c(ncn3[C@@H](C)C(=O)Nc3cncc(-c4cnc(N5CCC[C@H]5C(F)(F)F)nc4)n3)n(C)c2=O)no1', 'UniProt O75762', 2);

Per the records, this molecule ( "Cc1cc(Cn2c(=O)c3c(ncn3CC(=O)Nc3ccc(N4CCC(C(C)(C)F)CC4)cn3)n(C)c2=O)no1" ) has IC50 equal to 72

----------
Collected log10 of IC50 values appear next to each entry.
System Under Test: human TRPA1 (Homo sapiens (Human), UniProt O75762)
Sequence (O75762 whole entry): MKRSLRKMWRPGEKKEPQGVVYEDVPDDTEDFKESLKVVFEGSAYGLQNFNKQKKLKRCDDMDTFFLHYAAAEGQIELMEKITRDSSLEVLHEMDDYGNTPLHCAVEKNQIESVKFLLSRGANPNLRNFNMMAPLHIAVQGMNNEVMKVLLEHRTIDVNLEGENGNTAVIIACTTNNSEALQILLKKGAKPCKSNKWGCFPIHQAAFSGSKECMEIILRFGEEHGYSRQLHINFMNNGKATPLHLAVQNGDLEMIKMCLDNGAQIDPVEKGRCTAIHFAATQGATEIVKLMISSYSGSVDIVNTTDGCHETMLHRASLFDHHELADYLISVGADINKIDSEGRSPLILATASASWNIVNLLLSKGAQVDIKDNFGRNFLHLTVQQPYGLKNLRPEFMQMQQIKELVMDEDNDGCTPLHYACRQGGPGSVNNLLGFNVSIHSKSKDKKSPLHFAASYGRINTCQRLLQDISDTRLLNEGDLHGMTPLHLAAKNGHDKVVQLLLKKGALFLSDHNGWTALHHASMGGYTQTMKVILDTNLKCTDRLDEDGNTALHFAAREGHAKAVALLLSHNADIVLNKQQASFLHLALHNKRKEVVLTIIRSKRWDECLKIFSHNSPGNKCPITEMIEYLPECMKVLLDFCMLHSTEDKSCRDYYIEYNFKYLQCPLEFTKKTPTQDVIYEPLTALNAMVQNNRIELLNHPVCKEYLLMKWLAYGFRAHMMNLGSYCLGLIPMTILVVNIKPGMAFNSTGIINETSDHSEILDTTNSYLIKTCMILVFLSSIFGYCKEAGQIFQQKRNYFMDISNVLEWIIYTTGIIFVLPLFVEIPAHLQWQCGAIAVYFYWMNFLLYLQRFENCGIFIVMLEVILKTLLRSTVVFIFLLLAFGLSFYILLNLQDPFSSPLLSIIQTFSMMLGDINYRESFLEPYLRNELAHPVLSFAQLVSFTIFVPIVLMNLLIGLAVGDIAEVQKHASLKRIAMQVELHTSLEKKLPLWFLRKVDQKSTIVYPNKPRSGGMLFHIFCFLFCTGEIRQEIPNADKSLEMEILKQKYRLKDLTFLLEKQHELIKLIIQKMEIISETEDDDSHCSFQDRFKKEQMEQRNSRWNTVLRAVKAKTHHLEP
Assay Notes: In vitro inhibition of human TRPA1, whole cell patch configuration
Condition Context: current activation 10 μM AITC, tested concentrations 320 pM to 3.2 μM, read-out: hTRPA1 IC50
Note: values are log10 of IC50 expressed in nM.

Check out these entries, answers already filled in.
INSERT INTO measurements (compound, measurement_type, reported_value) VALUES
  ('CC(=O)Cn1c(=O)c2c(ncn2[C@@H](C)C(=O)Nc2cncc(-c3ccc(N4CC5CC5C4)nc3)n2)n(C)c1=O (stereo partly drawn) [Compound 41]', 'log10 of IC50', 1.08),
  ('CCC(=O)Cn1c(=O)c2c(ncn2[C@@H](C)C(=O)Nc2csc(-c3cnc(C)c(F)c3)n2)n(C)c1=O [Compound 101]', 'log10 of IC50', 1.08),
  ('Cc1cc(Cn2c(=O)c3c(ncn3[C@@H](C)C(=O)Nc3ccnc(-c4cnc(N5CCC[C@H]5C(F)(F)F)nc4)n3)n(C)c2=O)no1 [Compound 114]', 'log10 of IC50', 0.30),
  ('Cc1noc(Cn2c(=O)c3c(ncn3[C@@H](C)C(=O)Nc3cccc(-c4cnc(N5CC6CC6C5)nc4)n3)n(C)c2=O)n1 (stereo partly drawn) [Compound 167]', 'log10 of IC50', 0.60),
  ('C[C@@H](C(=O)Nc1cncc(-c2cnc(C(F)(F)F)nc2)n1)n1cnc2c1c(=O)n(Cc1ccccn1)c(=O)n2C [Compound 8]', 'log10 of IC50', 1.64),
  ('COCC(=O)Cn1c(=O)c2c(ncn2[C@@H](C)C(=O)Nc2cccc(-c3cnc(N4CC5CC5C4)cn3)n2)n(C)c1=O (stereo partly drawn) [Compound 266]', 'log10 of IC50', 0.85),
  ('CC#CCn1c(=O)c2c(ncn2[C@@H](C)C(=O)Nc2cncc(-c3cnc(N4CC5CC5C4)nc3)n2)n(C)c1=O (stereo partly drawn) [Compound 261]', 'log10 of IC50', 0.70),
  ('Cc1cc(-c2cccc(NC(=O)Cn3cnc4c3c(=O)n(Cc3ccon3)c(=O)n4C)n2)cnc1C(F)(F)F [Compound 224]', 'log10 of IC50', 1.28),
  ('CCC(=O)Cn1c(=O)c2c(ncn2[C@@H](C)C(=O)Nc2cccc(-c3cnc(N4CC5C(C4)C5(F)F)nc3)n2)n(C)c1=O (stereo partly drawn) [Compound 26]', 'log10 of IC50', 0.00),
  ('COCC(=O)Cn1c(=O)c2c(ncn2[C@@H](C)C(=O)Nc2cncc(-c3ccc(N4CC5CC5C4)nc3)n2)n(C)c1=O (stereo partly drawn) [Compound 271]', 'log10 of IC50', 0.70);

Per the records, this compound ( Cc1cc(Cn2c(=O)c3c(ncn3[C@@H](C)C(=O)Nc3cncc(-c4cnc(C(F)(F)F)nc4)n3)n(C)c2=O)no1 [Compound 21] ) has log10 of IC50 equal to 1.28

Per the records, this compound ( Cc1cc(Cn2c(=O)c3c(ncn3CC(=O)Nc3cncc(-c4cnc(C(F)(F)F)c(C)c4)n3)n(C)c2=O)no1 [Compound 229] ) has log10 of IC50 equal to 0.95
